- Procedure details: Growth inhibition of human MCF-10A cells at 50 uM incubated for 24 to 48 hrs by cell counter analysis relative to control
- Assay type: toxicity, cell-based
- Condition notes: time 24-48 hrs, read-out: GI
Measured quantity: inhibition at 50 µM (%)
The reply should be a number in %, with the unit left off.

Entry CC(=O)c1c(C)[nH]c2c1c(-c1ccc3c(c1)OCO3)nc1ccccc12 — recorded inhibition at 50 µM = 63

###

- Tested on: SK-OV-3
- Procedure details: Antiproliferative activity against human SK-OV-3 cells assessed as cell growth at 10 uM incubated for 48 hrs by sulforhodamine B assay relative to control
- Type: functional
- Condition notes: read-out: Activity
Items are presented alongside their recorded growth at 10 µM.
Write down the numeric answer in % and omit the unit.

Consider the worked cases shown below.
CC(=O)c1c(C)[nH]c2c1c(-c1ccc3c(c1)OCO3)nc1ccccc12 = 88.8
CC(=O)c1c(C)[nH]c2c1c(-c1cc3c(cc1Br)OCO3)nc1ccccc12 = 96.7

Record summary for CC(=O)c1c(C)n(CCCCl)c2c1c(-c1ccc3c(c1)OCO3)nc1ccccc12 : reported growth at 10 µM = 97.2

# compound CC(=O)c1c(C)[nH]c2c1c(-c1cc(Cl)cc(Cl)c1O)nc1ccccc12 ; its growth at 10 µM = 75.2

###

- Tested on: LOX IMVI
- Procedure details: Antiproliferative activity against human LOX IMVI cells assessed as cell growth at 10 uM incubated for 48 hrs by sulforhodamine B assay relative to control
- Type: functional
- Condition notes: read-out: Activity
Measured quantity: growth at 10 µM (%)
Just the number in %, nothing appended.

See these solved cases before continuing.
CC(=O)c1c(C)[nH]c2c1c(-c1cc(Cl)cc(Cl)c1O)nc1ccccc12 = 73.6
CC(=O)c1c(C)n(CCCCl)c2c1c(-c1ccc3c(c1)OCO3)nc1ccccc12 = 90
CC(=O)c1c(C)[nH]c2c1c(-c1cc3c(cc1Br)OCO3)nc1ccccc12 = 89.3

// next entry
Just so you know, measured growth at 10 µM for CC(=O)c1c(C)[nH]c2c1c(-c1ccc3c(c1)OCO3)nc1ccccc12 came out at 86.5

###

This listing pairs compounds with measured growth at 10 µM.
- Tested on: KM12
- Procedure details: Antiproliferative activity against human KM12 cells assessed as cell growth at 10 uM incubated for 48 hrs by sulforhodamine B assay relative to control
- Assay type: functional
- Condition notes: read-out: Activity
A number alone suffices; assume %.

A selection of reference data follows.
CC(=O)c1c(C)[nH]c2c1c(-c1cc3c(cc1Br)OCO3)nc1ccccc12 = 91
CC(=O)c1c(C)n(CCCCl)c2c1c(-c1ccc3c(c1)OCO3)nc1ccccc12 = 87.3
CC(=O)c1c(C)[nH]c2c1c(-c1cc(Cl)cc(Cl)c1O)nc1ccccc12 = 75.1

Moving on to the next compound.
The compound CC(=O)c1c(C)[nH]c2c1c(-c1ccc3c(c1)OCO3)nc1ccccc12 showed growth at 10 µM equal to 74.6

###

- Tested on: SNB-75
- Procedure details: Antiproliferative activity against human SNB-75 cells assessed as cell growth at 10 uM incubated for 48 hrs by sulforhodamine B assay relative to control
- Assay type: functional
- Condition notes: read-out: Activity
growth at 10 µM values for the molecules below.
Report as a plain number; the unit % is understood.

Please review the entries below; each comes with its answer.
CC(=O)c1c(C)n(-c2ccccc2)c2c1c(-c1ccccc1)nc1ccccc12 = 75.1
CC(=O)c1c(C)n(CCCCl)c2c1c(-c1ccc3c(c1)OCO3)nc1ccccc12 = 69.4
CC(=O)c1c(C)n(-c2ccccc2)c2c1c(-c1ccc(C)o1)nc1ccccc12 = 93.8
CC(=O)c1c(C)n(C)c2c1c(-c1ccccc1)nc1ccccc12 = 85.8

Sample CCOC(=O)c1c(C)n(-c2ccccc2)c2c1c(-c1ccccc1)nc1ccccc12 ; growth at 10 µM observed: 80.4

Record CC(=O)c1c(C)[nH]c2c1c(-c1cc(Cl)cc(Cl)c1O)nc1ccccc12 . Reported growth at 10 µM: 72.8
